# Test system: T. cruzi intracellular amastigotes in H9c2 cells
# assay.text: Rate-of-Kill (RoK) high-content imaging assay, amastigotes per cell (AM/CELL) and curve descriptors
# Format: cell-based, Trypanosoma cruzi
# Parameters: key: % reduction in parasite burden (cidal response)
# test.settings: 72h, figure 5
property.name: ME_72h

Input: Consider the compound shown here: Cn1cc(CN2CCN(c3ccc4c(c3)CCN(C(=O)[C@H]3C[C@@H]3c3ccccc3)CC4)CC2)cn1 [TCMDC-143537] What is its recorded ME_72h?
Output: 52.5957

Input: Which ME_72h is reported for this compound? Cc1c(C#N)c([N+](=O)[O-])nn1Cc1cccc(Cl)c1Cl [TCMDC-143152]
Output: 160.217

Input: Data request, read-out ME_72h, for O=C(C1CCCCC1)N1CCN(c2nnc(-c3ccccc3)c3ccccc23)CC1 [TCMDC-143511]
Output: 87.9479

Input: Which ME_72h is reported for this compound? COc1ccc(NS(=O)(=O)c2cc(-c3cc(C)[nH]n3)ccc2C)cc1OC [TCMDC-143194]
Output: -796.23

Input: Name the reported ME_72h value associated with the compound Cc1c(C(=O)NCCCCn2ccnc2)oc2c(C)cccc12 [TCMDC-143304]
Output: 81.5916

Input: Which ME_72h is reported for this compound? Fc1ccc(OC2CC(NCc3cccc4cn[nH]c34)C2)cc1C(F)(F)F (stereo not drawn) [TCMDC-143455]
Output: 61.893

Input: Record request: ME_72h value, item CN(Cc1ccc(C(N)=O)cc1)C(c1ccc(F)cc1)c1cccnc1 (stereo not drawn) [TCMDC-143504]
Output: 0.6882

Input: Any idea what its ME_72h is? The compound is O=C(c1cccc(Cl)c1Cl)N1CCn2c1nc(-c1ccncc1)cc2=O [TCMDC-143409]
Output: 11.7221

Input: Requested field: ME_72h. Item: CS(=O)(=O)NC1CCC(Oc2cc3cnccc3cc2-c2ccsc2)CC1.O=C(O)C(F)(F)F (stereo not drawn) [TCMDC-143302]
Output: 21.5908

Input: GET /values?readout=ME_72h&item= COc1ccc(C(C)(C)C)cc1S(=O)(=O)n1ccnc1 [TCMDC-143275]
Output: 19.8776

Input: Field request: ME_72h | item: CCN(Cc1ccncc1)Cc1ccc(NC(=O)c2cc(-c3ccc(F)cc3)n[nH]2)cc1 [TCMDC-143433]
Output: 30.4902

Input: // query ME_72h value for entry c1ccc(CCNCc2cncc3nc(-c4cnccn4)n(C4CCCCC4)c23)cc1 [TCMDC-143346]
Output: 17.2662

Input: Fill in: ME_72h of CC(C)c1cc(C(=O)N2CCCC(c3cc4ncccc4[nH]3)C2)on1 (stereo not drawn) [TCMDC-143439] is ___
Output: 68.3635

Input: Name the reported ME_72h value associated with the compound CCCc1nc2nc(N)nc(N)c2cc1CC [TCMDC-143606]
Output: 54.3499

Input: Need ME_72h, item CCCN(Cc1ccc(OC)c(OC)c1)Cc1cc(=O)c2c(C)cc(C)cc2[nH]1 [TCMDC-143331]
Output: 85.455

Input: Returns the measured ME_72h for the input compound. Input: O=C(O)C(F)(F)F.O=c1oc2ccccc2n1C1CCN(Cc2ccccc2-c2cccnc2)CC1 [TCMDC-143389]
Output: 54.0373

Input: I have this compound here, O=C(Nc1ccc(Br)c(Cl)c1)Nc1ccc2c(c1)OCO2 [TCMDC-143588] , and I need its recorded ME_72h.
Output: -0.7061

Input: What ME_72h value was documented for this compound, COc1cccc(CCNC(=O)C(c2cn[nH]c2)N2CCN(c3ccc(Cl)cc3)CC2)c1 (stereo not drawn) [TCMDC-143434] ?
Output: 117.751

Data origin, for the record: paper PMC8318231
